TARGET UNDER TEST: His6-AspH315–758 (human aspartate/asparagine-β-hydroxylase, AspH) (Homo sapiens)
Construct: N-Terminally His6-tagged human AspH315–758 (His6-AspH315–758) was produced in E. coli BL21 (DE3) cells; made in house; host or cells: E. coli BL21 (DE3), pET-28a(+) vector
Sequence (Q12797 315-758): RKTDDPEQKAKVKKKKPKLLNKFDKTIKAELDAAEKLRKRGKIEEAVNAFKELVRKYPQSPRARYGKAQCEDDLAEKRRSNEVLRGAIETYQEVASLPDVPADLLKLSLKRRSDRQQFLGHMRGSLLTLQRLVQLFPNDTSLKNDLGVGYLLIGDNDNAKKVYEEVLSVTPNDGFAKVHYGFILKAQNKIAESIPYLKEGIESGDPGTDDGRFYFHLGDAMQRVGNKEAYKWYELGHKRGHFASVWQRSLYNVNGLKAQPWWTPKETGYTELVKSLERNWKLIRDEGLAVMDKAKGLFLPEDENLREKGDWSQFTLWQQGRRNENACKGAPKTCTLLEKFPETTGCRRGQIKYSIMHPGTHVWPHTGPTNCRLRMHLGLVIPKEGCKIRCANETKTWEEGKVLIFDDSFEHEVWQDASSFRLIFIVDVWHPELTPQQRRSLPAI
ASSAY TEXT: SPE-MS AspH inhibition assay (LOPAC screen at fixed 20 μM and IC50 dose-response), hydroxylation of cyclic peptide hFX-CP101–119
Format: biochemical
COND: LOPAC compound at 20uM, plate 2; normalised to DMSO and 2,4-PDCA controls
Here the recorded Plate 2 (% inhibition) is given for each entry.
State just the number; it will be interpreted in %.

Worked examples follow.
INSERT INTO results (compound, experimental_readout, value) VALUES
  ('CCNC(=O)[C@H]1O[C@@H](n2cnc3c(N)ncnc32)[C@H](O)[C@@H]1O', 'Plate 2 (% inhibition)', 0.73),
  ('Cc1nn(-c2ccccc2)c(C)c1/C=N/N1CCN(Cc2ccccc2)CC1', 'Plate 2 (% inhibition)', -19.21);

--- query ---
Fill in the blank: the reported Plate 2 (% inhibition) of CC(C)(C)NCC(O)COc1cccc2[nH]c(=O)[nH]c12.Cl (racemic) [(±)-CGP-12177A hydrochloride] is ____.
-1.88

---

TARGET UNDER TEST: His6-AspH315–758 (human aspartate/asparagine-β-hydroxylase, AspH) (Homo sapiens, UniProt Q12797)
Construct: N-Terminally His6-tagged human AspH315–758 (His6-AspH315–758) was produced in E. coli BL21 (DE3) cells; made in house; host or cells: E. coli BL21 (DE3), pET-28a(+) vector
ASSAY TEXT: SPE-MS AspH inhibition assay (LOPAC screen at fixed 20 μM and IC50 dose-response), hydroxylation of cyclic peptide hFX-CP101–119
Type: biochemical
COND: LOPAC compound at fixed 20 uM; plate 1, normalised to DMSO and 2,4-PDCA controls
Structures can show the parent of a compound that is named as a salt.
EXPERIMENTAL READOUT: Plate 1 (% inhibition) (%)
Enter your answer as a number in %; do not include the unit.

INSERT INTO assay_data (molecule, value) VALUES
  ('C[N+]1(C)[C@@H]2CC[C@H]1C[C@@H](OC(=O)C(CO)c1ccccc1)C2 (some centres unmarked) [Atropine methyl nitrate]', 2.78),
  ('OCCN1CCN(CCCN2c3ccccc3C=Cc3ccccc32)CC1 [Opipramol dihydrochloride]', -12.26);

Look at this molecule and give its reported Plate 1 (% inhibition). CCCC1O[C@@H]2C[C@H]3[C@@H]4CCC5=CC(=O)C=C[C@]5(C)[C@H]4[C@@H](O)C[C@]3(C)[C@]2(C(=O)CO)O1 (some centres unmarked) [Budesonide]
-13.14

For the molecule c1ccc(-c2cnn3cc(-c4ccc(OCCN5CCOCC5)cc4)cnc23)cc1 , what Plate 1 (% inhibition) is on record?
-35.30

Using the record for CCCCC#Cc1nc(NC)c2ncn([C@@H]3O[C@H](CO)[C@@H](O)[C@H]3O)c2n1 , report its Plate 1 (% inhibition).
20.82

I am curious: what Plate 1 (% inhibition) value has been reported for CC(C)(C=O)Cc1cc(C(C)(C)C)c(O)c(C(C)(C)C)c1 ?
0.58

Fill in the blank: the reported Plate 1 (% inhibition) of CN(C)CC[C@@H](c1ccc(Cl)cc1)c1ccccn1 [(+)-Chlorpheniramine maleate] is ____.
-13.88

Form field: reported Plate 1 (% inhibition) of NCC(CC(=O)O)c1ccc(Cl)cc1 (racemic) [(±)-Baclofen]
-1.99

Quick one: Plate 1 (% inhibition) of Clc1ccc(C(c2ccccc2Cl)C(Cl)Cl)cc1 (centres unmarked) ?
-5.18

Quick check: Plate 1 (% inhibition) of Nn1nnc2ccccc21 ?
-4.79

For CN1CCN(C2=Nc3cc(Cl)ccc3Nc3ccccc32)CC1 , what is its reported Plate 1 (% inhibition)?
-11.65

Quick one: Plate 1 (% inhibition) for CC(=O)OCC(=O)[C@@]1(O)CC[C@H]2[C@@H]3CCC4=CC(=O)CC[C@]4(C)[C@H]3C(=O)C[C@@]21C [Cortisone 21-acetate] ?
4.10

Using the record for CC(C)C[C@H](NC(=O)[C@@H](O)[C@H](N)Cc1ccccc1)C(=O)O [Bestatin hydrochloride] , report its Plate 1 (% inhibition).
-4.72

Item COc1cccc(C(=O)NCCN2CCN(c3ccc(Cl)cc3)CC2)c1 has what recorded Plate 1 (% inhibition)?
-7.35

Can you look up the measured Plate 1 (% inhibition) of C=CCn1c(=O)c2c(nc(-c3ccc(S(=O)(=O)O)cc3)n2C)n(C)c1=O for me?
-6.98

# get_value(readout='Plate 1 (% inhibition)', item= NC[C@H](O)c1ccc(O)c(O)c1.O=C(O)C(O)C(O)C(=O)O [L(-)-Norepinephrine bitartrate] )
89.51

So what does the record say about Plate 1 (% inhibition) for Cc1nnc(SCC2=C(C(=O)O)N3C(=O)[C@@H](NC(=O)Cn4cnnn4)[C@H]3SC2)s1 [Cefazolin sodium] ?
9.95
